# assay: Primary qHTS for inhibitors of nuclear receptor binding SET domain protein 2 (NSD2) in an isogenic RCH-ACV NSD2 p.E1099K mutant (9B) (AID 1645876); note: nearly all actives have a fitted effect of over 70% in size; for activity change, negative = viability loss: % is set by controls: 0 for no effect and ±100 for the full control effect
# condition: RCH-ACV (leukaemia line) NSD2 E1099K (9B) viability, CellTiter-Glo, 72 h; series mostly up to 44.9 µM
Records with an inconclusive call do not appear. Calls of active or inactive are those of the source. Calls come from the whole dose curve; as a rule, active = well fitted inhibition curve with a large enough effect; inconclusive = small, poorly fitted or top-dose-only effect; inactive = flat fitted curve, though single readings scatter.
assay.readout: activity change, negative = viability loss

compound=COC(=O)C1=C[C@@H](O)[C@@H](O)[C@H](O[C@@H]2O[C@H](COC(=O)/C=C/c3ccccc3)[C@@H](O)[C@H](O)[C@H]2O)C1 meas_value=inactive
compound="C[C@@H]1C(=O)O[C@H]2CC34[C@H]5C[C@@H](C(C)(C)C)C36[C@@H](OC(=O)[C@@H]6O)OC4(C(=O)O5)[C@]21O (stereo partly specified)" meas_value=inactive
compound="COc1cc(C2Oc3c(OC)cc(CCCO[C@@H]4O[C@H](CO)[C@@H](O)[C@H](O)[C@H]4O)cc3C2CO)ccc1O (stereo partly specified)" meas_value=inactive
compound="CCOC(=O)[C@H](CCc1ccccc1)N[C@@H](C)C(=O)N1C2CCCCC2C[C@H]1C(=O)O (stereo partly specified)" meas_value=inactive
compound=CC(=O)O[C@H]1CC[C@@]2(CI)C(=CC[C@@H]3[C@@H]2CC[C@]2(C)[C@@H]([C@H](C)CCCC(C)C)CC[C@@H]32)C1 meas_value="-4.5% [at 9.23 µM] (inactive)"
compound="CC1=CCC2C(C)(CO)CCCC2(CO)C1CO (stereo unspecified)" meas_value=inactive
compound=COc1ccc([C@H]2Cc3cccc(O)c3C(=O)O2)cc1 meas_value=inactive
compound="CC(=O)OCCC(C)CCC1C(C)(O)CCC2C(C)(C)CCCC21C (stereo unspecified)" meas_value=inactive
compound="C=C1C2=CC(O)C(C)C1(C)CC/C(C)=C/CCC1(C)OC1C2=O (stereo unspecified)" meas_value=inactive
compound=COC1=CC(=O)O[C@@H](CCc2ccccc2)[C@@H]1O meas_value=inactive

With those in mind, consider the next compound.
// activity change, negative = viability loss lookup, compound = CCC1CC2C(C)=CC3CCCCC3C2(C)C2(OC(=O)C(C)(O)OC2=O)O1 (stereo unspecified) , result: inactive

* * *

# Tested on: HACAT
# assay: qHTS assay to identify novel small-molecules to repurpose for Merkel cell carcinoma treatment (AID 1296009); note: nearly all actives have a fitted effect of over 60% in size
# condition: MCC and control cell lines, CellTiter-Glo viability, 72 h; at 44.8 µM (top of the series) unless noted
Records with an inconclusive call do not appear. Activity calls are given as the source filed them. Calls follow the shape of the dose curve; as a rule, active = well fitted inhibition curve with a large enough effect; inconclusive = small, poorly fitted or top-dose-only effect; inactive = flat fitted curve, though single readings scatter.
assay.readout: outcome

compound=CC[C@@H](c1ccc(F)c(F)c1)n1c(C(=O)OC)c(-c2ccno2)[nH]c1=S meas_value=inactive
compound=O=C1C[C@@H](c2ccc(O)cc2)Oc2cc(O)ccc21 meas_value=inactive
compound="CC(C#N)C(C)O[C@@H]1O[C@H](CO)[C@@H](O)[C@H](O)[C@H]1O (some centres undefined)" meas_value=inactive

* * *

# Test system: NIH3T3
# assay: Cytotoxic Profiling of Annotated Libraries Using Quantitative High-Throughput Screening (AID 1296008); note: nearly all actives have a fitted effect of over 60% in size
# condition: Five cell lines viability, CellTiter-Glo ATP luminescence, 48-72 h
Records with an inconclusive call do not appear. Calls of active or inactive are those of the source. Calls follow the shape of the dose curve; as a rule, active = well fitted inhibition curve with a large enough effect; inconclusive = small, poorly fitted or top-dose-only effect; inactive = flat fitted curve, though single readings scatter.
assay.readout: outcome

compound=COc1cc(C(C)=O)ccc1O[C@@H]1O[C@H](CO[C@@H]2O[C@@H](C)[C@H](O)[C@@H](O)[C@H]2O)[C@@H](O)[C@H](O)[C@H]1O meas_value=inactive
compound=CC/C=C\C[C@H]1C(=O)C=C[C@@H]1CCCCCCCC(=O)O meas_value=inactive
compound="COc1cc(CCc2ccccc2)c(C(=O)O)c2c1CC(C(C)(C)O)O2 (stereo not drawn)" meas_value=inactive

* * *

# assay: Cell Viability - LYMP2-014 (AID 983);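 note: cells exposed to compound for 24 h at 37 °C; nearly all actives have a fitted effect of over 50% in size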
# condition: LYMP2-014 lymphoblastoid cells, viability qHTS; series mostly up to 92.2 µM
# Excerpt: NIH Chemical Genomics Center [NCGC] NIH Molecular Libraries Screening Centers Network [MLSCN] National Institutes of Environmental Health Sciences [NIEHS] National Toxicology Program [NTP] We have developed a 1536-well cell-based assay for quantitative high throughput screening (qHTS) against a number of cell lines to determine in vitro cytotoxicity of small molecules. […] 8. Detection; Luminescence; Viewlux plate reader […]
Records with an inconclusive call do not appear. Active and inactive are the calls of the source. Calls follow the shape of the dose curve; as a rule, active = well fitted cell-killing curve with a large enough effect; inconclusive = small, poorly fitted or top-dose-only effect; inactive = flat fitted curve, though single readings scatter.
Could you please pick one outcome from this set? Y (active), N (inactive)

compound="CC(O)CO (stereo not given)" cat=N
compound=IC(I)I cat=N
compound=CC1=C2[C@@H]([C@H](C)CC[C@H]2/C=C(\C)C(=O)O)[C@H](O)C1 cat=N
compound=CC(C)=O cat=N
compound=O=S(=O)(O)O cat=N

## Input Could you please tell me the result logged for `CCCCCCCC(=O)O` in this assay?
## Output N

## Input Could you please tell me the result logged for `O=CCCCC=O` in this assay?
## Output Y

## Input Could you please tell me the result logged for `Nc1ccn([C@H]2CS[C@@H](CO)O2)c(=O)n1` in this assay?
## Output N

## Input Could you please tell me the result logged for `CCOC(C)=O` in this assay?
## Output N

## Input Could you please tell me the result logged for `CCOc1ccc2c(c1)C(C)=CC(C)(C)N2` in this assay?
## Output N

* * *

# System: Hek293T
# assay: Primary qHTS to identify gynecologic anti-cancer compounds using libraries of approved drugs and bioactive compounds (AID 1345084); note: % is set by controls: 0 for no effect and ±100 for the full control effect; nearly all actives have a fitted effect of over 55% in size
# condition: Gynecologic cancer cell panel viability, ATPlite luminescence, 48 h, control line for the selectivity index; series mostly up to 57.5 µM
Records with an inconclusive call do not appear. The source made the active and inactive calls. Calls come from the whole dose curve; as a rule, active = well fitted cell-killing curve with a large enough effect; inconclusive = small, poorly fitted or top-dose-only effect, or effect the other way; inactive = flat fitted curve, though single readings scatter.
assay.readout: activity change, negative = cytotoxicity

molecule="C=C[C@@]1(C)CC(=O)C2[C@](C)(O1)[C@@H](OC(C)=O)[C@@H](O)[C@H]1C(C)(C)CCC[C@]21C (some centres undefined)" assay_readout="activity change, negative = cytotoxicity" meas_value="-0.239% [at 11.6 µM] (inactive)"
molecule=O=C(O[C@@H]1O[C@H](CO)[C@@H](O)[C@H](O)[C@H]1O)c1c(O)cc(O)cc1/C=C/c1ccccc1 assay_readout="activity change, negative = cytotoxicity" meas_value=inactive
molecule="CC1OC(O[C@H]2[C@@H](O)C[C@@]3(C)C([C@H](O)C[C@]4(C)C3CC=C3C5CC(C)(C)CC[C@]5(C(=O)OC5OC(CO)C(O)C(O)C5OC5OCC(OC6OCC(OC7OCC(O)C(O)C7O)C(O)C6O)C(OC6OCC(O)(CO)C6O)C5O)CC[C@]34C)[C@]2(C)CO)C(O)C(O)C1O (some centres undefined)" assay_readout="activity change, negative = cytotoxicity" meas_value="-2% [at 6.55 µM] (inactive)"
molecule=NC(=O)c1cccc(-c2cc(O)cc(OC(=O)NC3CCCCC3)c2)c1 assay_readout="activity change, negative = cytotoxicity" meas_value=inactive

* * *

# target.system: Nicotinamide N-methyltransferase (Homo sapiens) (UniProt P40261)
# Sequence (P40261 whole entry, looked up): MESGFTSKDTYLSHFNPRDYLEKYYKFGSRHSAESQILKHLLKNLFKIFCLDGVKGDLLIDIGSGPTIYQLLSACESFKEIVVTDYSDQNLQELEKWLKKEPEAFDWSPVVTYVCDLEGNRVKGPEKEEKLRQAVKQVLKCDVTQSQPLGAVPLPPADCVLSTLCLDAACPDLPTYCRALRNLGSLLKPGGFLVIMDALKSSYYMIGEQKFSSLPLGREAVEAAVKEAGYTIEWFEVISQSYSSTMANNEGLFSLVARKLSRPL
# assay: Confirmatory Screen for Target Class Profiling of Small Molecule Inhibitors of Methyltransferases (AID 1745852)
# condition: MTase-Glo luminescence, SAH detection, recombinant enzyme; measured here: NNMT max response; stronger effect = lower value
assay.readout: activity (%)
Write the number in % without appending the unit.

Some entries whose results are on file:
compound=O=C(O)CCc1cccc(O[C@@H]2O[C@H](CO)[C@@H](O)[C@H](O)[C@H]2O)c1O unit_label=% meas_value=0.392
compound=C/C=C(\C)C(=O)O[C@H]1[C@@H](O[C@]2(COC(=O)CC(C)C)O[C@H](COC(=O)C(C)C)[C@@H](OC(C)=O)[C@@H]2O)O[C@H](COC(C)=O)[C@@H](O)[C@@H]1O unit_label=% meas_value=2.56
compound=Cc1[nH]cnc1C1CCN(c2nc3cccc4c3n2CCC4=O)CC1 unit_label=% meas_value=-9.9
compound="CC1(C)CCC2(C(=O)OC3OC(COC4OC(CO)C(O)C(O)C4O)C(O)C(O)C3O)CCC3(C)C(=CCC4C5(C)CCC(O)C(C)(C(=O)O)C5CCC43C)C2C1O (centres undefined)" unit_label=% meas_value=-5.22
compound=COc1cc(N2CCC(O)CC2)ccc1Nc1cc(Nc2ccccc2S(=O)(=O)C(C)C)c2cc[nH]c2n1 unit_label=% meas_value=-6.54

Item: CC1(C)CC[C@]2(C(=O)O[C@@H]3O[C@H](CO)[C@@H](O)[C@H](O)[C@H]3O)CC[C@]3(C)C(=CCC4[C@@]5(C)C[C@@H](O)[C@H](O)[C@@](C)(CO)C5CC[C@]43C)C2C1 (some centres undefined) | System: Nicotinamide N-methyltransferase (Homo sapiens) (UniProt P40261) | activity: -8.27

Item: C=C1C(O[C@@H]2O[C@H](CO)[C@@H](O)[C@H](O)[C@@H]2O)CC2C(C)(C)C(O)CCC2(C)C1CC/C(C)=C\CO (some centres undefined) | System: Nicotinamide N-methyltransferase (Homo sapiens) (UniProt P40261) | activity: 3.48
